The origin of these recorded values is ChEMBL document CHEMBL3988442.

System: Wolbachia pipientis
Procedure details: Anti-Wolbachia Cell-Based Screen
Assay type: functional
Set-up: scale not given: in the data most compounds retested in dose-response had high values
Condition description: 5 µM
In all, about 48,000 compounds went through this assay and about 13,000 (27%) showed an effect of 50% or more. The list shows a part of the results.
Reported metric: Percent Effect (%)
One number for each entry, in %.

For each of the items listed, what is its Percent Effect?
1. COc1cccc(CNC(=O)c2cccnc2N)c1
2. CN(C)CCO[C@H]1C[C@@H](O)C12CCN(c1cnccn1)CC2
3. CCOCCCNC(=O)N(C)Cc1ccc(SC)c(OC)c1
4. CCOCCCNC(=O)C1(C)CCC(=O)N1Cc1ccccc1F (configuration not stated)
5. CC(C)c1nc(C2CCCN(c3cnc4ccccc4n3)C2)no1 (configuration not stated)

[120.4, 0.5833, 10.44, 119.7, 3.044]
